Source: the RNAGym collection of RNA variant scans (doi:10.7554/elife.80360)

B1: Twister Ribozyme (parent)
chain: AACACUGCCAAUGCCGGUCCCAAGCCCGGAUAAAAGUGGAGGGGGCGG

Variants of: B1
ASSAY_OVERVIEW: self-cleavage, relative activity (ratio to wild type); higher = more cleavage; co-transcriptional
# label = true if self-cleavage >= 0.3 else false

[
  {
    "MUTATION_LIST": "C20A G28C",
    "LABEL": "false"
  },
  {
    "MUTATION_LIST": "A2U A33C",
    "LABEL": "true"
  },
  {
    "MUTATION_LIST": "C26A G43C",
    "LABEL": "false"
  },
  {
    "MUTATION_LIST": "C27G G28U",
    "LABEL": "false"
  },
  {
    "MUTATION_LIST": "A2C C3G",
    "LABEL": "false"
  }
]

Here is another variant to look at.
INPUT: Is it the case that A2G C46G has self-cleavage reaching or exceeding 0.3?
OUTPUT: true
